Reference for the values: ChEMBL document CHEMBL5543112

# EXPERIMENT DESCRIPTION: AUC in ICR mouse at 3 mg/kg, po measured upto 24 hrs by LC/MS-MS analysis
# Assay type: ADME, organism-based
# CONDITIONS USED: in vivo
PARAMETER: AUC at 24 h (ng·h/mL)
Just the number please, in ng·h/mL, no unit attached.

In: // query AUC at 24 h value for entry CC(=O)N1CCc2c(c(N3CCCc4cc(-c5cnn(C)c5)c(C(F)F)cc43)nn2[C@H]2CC[C@H](CN3Cc4cc5c(cc4C3)C(=O)N(C3CCC(=O)NC3=O)C5=O)CC2)C1 (stereo partly specified)
Out: 4190

====

# EXPERIMENT DESCRIPTION: Drug distribution in SCID mouse spleen at 1 mg/kg, po measured at 1 hr by LC-MS/MS analysis
# Format: ADME, organism-based
# CONDITIONS USED: read-out: Ct
PARAMETER: concentration at 1 h (ng/mL)
Just the number please, in ng/mL, no unit attached.

In: // query concentration at 1 h value for entry CC(=O)N1CCc2c(c(N3CCCc4cc(-c5cnn(C)c5)c(C(F)F)cc43)nn2[C@H]2CC[C@H](CN3Cc4cc5c(cc4C3)C(=O)N(C3CCC(=O)NC3=O)C5=O)CC2)C1 (stereo partly specified)
Out: 146

====

# EXPERIMENT DESCRIPTION: Drug concentration in SCID mouse plasma at 1 mg/kg, po measured at 6 hrs by LC-MS/MS analysis
# Type: ADME, organism-based
PARAMETER: concentration at 6 h (ng/mL)
Just the number please, in ng/mL, no unit attached.

In: // query concentration at 6 h value for entry CC(=O)N1CCc2c(c(N3CCCc4cc(-c5cnn(C)c5)c(C(F)F)cc43)nn2[C@H]2CC[C@H](CN3Cc4cc5c(cc4C3)C(=O)N(C3CCC(=O)NC3=O)C5=O)CC2)C1 (stereo partly specified)
Out: 14.1

====

# EXPERIMENT DESCRIPTION: Drug concentration in SCID mouse plasma at 1 mg/kg, po measured at 1 hr by LC-MS/MS analysis
# Format: ADME, organism-based
PARAMETER: concentration at 1 h (µg/mL)
Just the number please, in µg/mL, no unit attached.

In: // query concentration at 1 h value for entry CC(=O)N1CCc2c(c(N3CCCc4cc(-c5cnn(C)c5)c(C(F)F)cc43)nn2[C@H]2CC[C@H](CN3Cc4cc5c(cc4C3)C(=O)N(C3CCC(=O)NC3=O)C5=O)CC2)C1 (stereo partly specified)
Out: 0.141

====

# EXPERIMENT DESCRIPTION: Clearance in Sprague-Dawley rat at 1 mg/kg, iv measured upto 24 hrs by LC/MS-MS analysis
# Type: ADME, organism-based
# CONDITIONS USED: in vivo
PARAMETER: clearance (mL/min/kg)
Just the number please, in mL/min/kg, no unit attached.

In: // query clearance value for entry CC(=O)N1CCc2c(c(N3CCCc4cc(-c5cnn(C)c5)c(C(F)F)cc43)nn2[C@H]2CC[C@H](CN3Cc4cc5c(cc4C3)C(=O)N(C3CCC(=O)NC3=O)C5=O)CC2)C1 (stereo partly specified)
Out: 34.6

====

# EXPERIMENT DESCRIPTION: Drug distribution in Sprague-Dawley rat kidney at 3 mg/kg, po measured at 24 hrs by LC-MS/MS analysis
# Format: ADME, organism-based
# CONDITIONS USED: read-out: Ct
PARAMETER: concentration at 24 h (ng/g)
Just the number please, in ng/g, no unit attached.

In: // query concentration at 24 h value for entry CC(=O)N1CCc2c(c(N3CCCc4cc(-c5cnn(C)c5)c(C(F)F)cc43)nn2[C@H]2CC[C@H](CN3Cc4cc5c(cc4C3)C(=O)N(C3CCC(=O)NC3=O)C5=O)CC2)C1 (stereo partly specified)
Out: 2.1

====

# EXPERIMENT DESCRIPTION: Drug distribution in SCID mouse plasma at 1 mg/kg, po measured at 1 hr by LC-MS/MS analysis
# Format: ADME, organism-based
PARAMETER: concentration at 1 h (ng/mL)
Just the number please, in ng/mL, no unit attached.

In: // query concentration at 1 h value for entry CC(=O)N1CCc2c(c(N3CCCc4cc(-c5cnn(C)c5)c(C(F)F)cc43)nn2[C@H]2CC[C@H](CN3Cc4cc5c(cc4C3)C(=O)N(C3CCC(=O)NC3=O)C5=O)CC2)C1 (stereo partly specified)
Out: 212

====

# EXPERIMENT DESCRIPTION: Drug distribution in Sprague-Dawley rat spleen at 3 mg/kg, po measured at 1 hr by LC-MS/MS analysis
# Format: ADME, organism-based
# CONDITIONS USED: read-out: Ct
PARAMETER: concentration at 1 h (ng/g)
Just the number please, in ng/g, no unit attached.

In: // query concentration at 1 h value for entry CC(=O)N1CCc2c(c(N3CCCc4cc(-c5cnn(C)c5)c(C(F)F)cc43)nn2[C@H]2CC[C@H](CN3Cc4cc5c(cc4C3)C(=O)N(C3CCC(=O)NC3=O)C5=O)CC2)C1 (stereo partly specified)
Out: 832

====

# EXPERIMENT DESCRIPTION: Drug distribution in SCID mouse plasma at 1 mg/kg, po measured at 6 hrs by LC-MS/MS analysis
# Assay type: ADME, organism-based
PARAMETER: concentration at 6 h

In: // query concentration at 6 h value for entry CC(=O)N1CCc2c(c(N3CCCc4cc(-c5cnn(C)c5)c(C(F)F)cc43)nn2[C@H]2CC[C@H](CN3Cc4cc5c(cc4C3)C(=O)N(C3CCC(=O)NC3=O)C5=O)CC2)C1 (stereo partly specified)
Out: 43.2 ng/mL

====

# EXPERIMENT DESCRIPTION: Drug distribution in SCID mouse spleen at 0.3 mg/kg, po measured at 6 hrs by LC-MS/MS analysis
# Assay type: ADME, organism-based
# CONDITIONS USED: read-out: Ct
PARAMETER: concentration at 6 h (ng/mL)
Just the number please, in ng/mL, no unit attached.

In: // query concentration at 6 h value for entry CC(=O)N1CCc2c(c(N3CCCc4cc(-c5cnn(C)c5)c(C(F)F)cc43)nn2[C@H]2CC[C@H](CN3Cc4cc5c(cc4C3)C(=O)N(C3CCC(=O)NC3=O)C5=O)CC2)C1 (stereo partly specified)
Out: 27.4

====

# EXPERIMENT DESCRIPTION: Drug distribution in Sprague-Dawley rat heart at 10 mg/kg, po measured at 6 hrs by LC-MS/MS analysis
# Assay type: ADME, organism-based
# CONDITIONS USED: read-out: Ct
PARAMETER: concentration at 6 h (ng/g)
Just the number please, in ng/g, no unit attached.

In: // query concentration at 6 h value for entry CC(=O)N1CCc2c(c(N3CCCc4cc(-c5cnn(C)c5)c(C(F)F)cc43)nn2[C@H]2CC[C@H](CN3Cc4cc5c(cc4C3)C(=O)N(C3CCC(=O)NC3=O)C5=O)CC2)C1 (stereo partly specified)
Out: 83

====

# EXPERIMENT DESCRIPTION: Drug distribution in SCID mouse plasma at 3 mg/kg, po measured at 6 hrs by LC-MS/MS analysis
# Type: ADME, organism-based
PARAMETER: concentration at 6 h (ng/mL)
Just the number please, in ng/mL, no unit attached.

In: // query concentration at 6 h value for entry CC(=O)N1CCc2c(c(N3CCCc4cc(-c5cnn(C)c5)c(C(F)F)cc43)nn2[C@H]2CC[C@H](CN3Cc4cc5c(cc4C3)C(=O)N(C3CCC(=O)NC3=O)C5=O)CC2)C1 (stereo partly specified)
Out: 763

====

# EXPERIMENT DESCRIPTION: Drug concentration in rat plasma at 3 mg/kg, po measured at 6 hrs by LC-MS/MS analysis
# Type: ADME, organism-based
PARAMETER: concentration at 6 h (ng/mL)
Just the number please, in ng/mL, no unit attached.

In: // query concentration at 6 h value for entry CC(=O)N1CCc2c(c(N3CCCc4ccc(C(F)F)cc43)nn2C2CCN(C(=O)CN3Cc4cc5c(cc4C3)C(=O)N(C3CCC(=O)NC3=O)C5=O)CC2)C1 (stereo unspecified)
Out: 0.9

====

# EXPERIMENT DESCRIPTION: Drug distribution in SCID mouse plasma at 3 mg/kg, po measured at 24 hrs by LC-MS/MS analysis
# Type: ADME, organism-based
PARAMETER: concentration at 24 h (ng/mL)
Just the number please, in ng/mL, no unit attached.

In: // query concentration at 24 h value for entry CC(=O)N1CCc2c(c(N3CCCc4cc(-c5cnn(C)c5)c(C(F)F)cc43)nn2[C@H]2CC[C@H](CN3Cc4cc5c(cc4C3)C(=O)N(C3CCC(=O)NC3=O)C5=O)CC2)C1 (stereo partly specified)
Out: 12.7
